Measurement protocol: Toxicity liver stage against HepG2, at 10uM
Format: cell-based
Parameters: test concentration 10 uM, cell line HepG2-A16-CD81EGFP
Conditions used: human, HepG2-A16-CD81EGFP cells; read-out: INHIBITION
Outcome measure: cytotoxicity at 10 µM (%)

{"Molecule": "CC(NC(=O)CCOc1ccccc1Cl)c1nnc2n1CCC2 (configuration not stated)", "Outcome measure": "cytotoxicity at 10 µM", "Test value": -6.46}
{"Molecule": "CCC1C(=O)NCCN1c1ccnc(C(C)(C)C)n1 (configuration not stated)", "Outcome measure": "cytotoxicity at 10 µM", "Test value": -8.37}
{"Molecule": "Cc1cccc(CC(=O)NC2CCN(C(=O)NC(C)(C)C)CC2)c1", "Outcome measure": "cytotoxicity at 10 µM", "Test value": -10.4}
{"Molecule": "O=C1CCNc2cc3c(cc2CN1Cc1ccco1)OCO3", "Outcome measure": "cytotoxicity at 10 µM", "Test value": 6.36}
{"Molecule": "Cc1cccc(NC2CCc3c2[nH]c(=O)n(C2CCCCC2)c3=O)c1C (configuration not stated)", "Outcome measure": "cytotoxicity at 10 µM", "Test value": 5.05}
{"Molecule": "CSc1ncccc1C(=O)N1C[C@@H]2CC[C@H]1CN(c1ncccn1)C2", "Outcome measure": "cytotoxicity at 10 µM", "Test value": -4.03}
{"Molecule": "CCN(C)S(=O)(=O)NCC1CCCN(Cc2ccccc2F)C1 (configuration not stated)", "Outcome measure": "cytotoxicity at 10 µM", "Test value": -1.22}
{"Molecule": "Cc1noc(C)c1CN1CCn2c(COC(C)C)nnc2C1", "Outcome measure": "cytotoxicity at 10 µM", "Test value": -113}
{"Molecule": "CN(CC(=O)NCCCOc1ccc(F)cc1)c1ccc(C#N)cn1", "Outcome measure": "cytotoxicity at 10 µM", "Test value": -0.844}
{"Molecule": "COCC(=O)NCc1cccnc1-n1cnc2ccccc21", "Outcome measure": "cytotoxicity at 10 µM", "Test value": -2.8}
{"Molecule": "O=C(Nc1nnc(C2CC2)s1)NC1CCN(Cc2ccccc2)C1 (configuration not stated)", "Outcome measure": "cytotoxicity at 10 µM", "Test value": -10.7}
{"Molecule": "COc1ccc(OC)c(C(=O)N(C)Cc2ncc(C)c(OC)c2C)c1", "Outcome measure": "cytotoxicity at 10 µM", "Test value": -4.3}

====

Measured cytotoxicity at 10 µM accompanies every entry in the list below.
Measurement protocol: Toxicity liver stage against HepG2, at 10uM
Assay type: cell-based
Parameters: test concentration 10 uM, cell line HepG2-A16-CD81EGFP
Conditions used: human, HepG2-A16-CD81EGFP cells; read-out: INHIBITION
Outcome measure: cytotoxicity at 10 µM (%)

{"Molecule": "Cc1cnn(CC2CCCN2Cc2cc(=O)n3cc(C)ccc3n2)c1 (stereo not drawn)", "Unit string": "%", "Test value": -10.9}
{"Molecule": "COc1ccc(OCC(=O)NS(=O)(=O)c2ccc(Cl)s2)cc1", "Unit string": "%", "Test value": 14.1}
{"Molecule": "CCN(C(=O)Cc1ccc(NCc2ncc[nH]2)cc1)c1ccccc1", "Unit string": "%", "Test value": 6.43}
{"Molecule": "CC1=C[C@@H](CNS(C)(=O)=O)[C@H](C(C)C)C[C@H]1CC(=O)NCCN(C)C", "Unit string": "%", "Test value": 0.559}
{"Molecule": "CS(=O)(=O)N1CC[C@@H]2[C@@H]1CCN2Cc1ccc2c(c1)OCO2", "Unit string": "%", "Test value": -5.96}
{"Molecule": "COCCOCCCC(=O)N1CCC(Cc2ccccc2OC)CC1", "Unit string": "%", "Test value": 7.28}
{"Molecule": "O=C(O)c1cc(-c2cccnc2)cc(S(=O)(=O)N2CCCCCC2)c1", "Unit string": "%", "Test value": -2.88}
{"Molecule": "Cc1nc(C)n(CC(C)C(=O)N2CCC(N3CCC(O)CC3)CC2)n1 (stereo not drawn)", "Unit string": "%", "Test value": 1.43}
{"Molecule": "Cc1cc(C2CCN(C(=O)c3cnn(C)c3)CC2)ccn1", "Unit string": "%", "Test value": -17.8}
{"Molecule": "Cc1n[nH]c(C2CN(C(=O)CCCn3cccn3)CCO2)n1 (stereo not drawn)", "Unit string": "%", "Test value": -0.138}
{"Molecule": "NCc1ccccc1Sc1ccc(O)cc1", "Unit string": "%", "Test value": 1.31}
{"Molecule": "O=C(NCC1CCCN1Cc1ccccc1)NCC1(O)CCC1 (stereo not drawn)", "Unit string": "%", "Test value": -9.17}
{"Molecule": "CCN1CC[C@@]2(C(=O)N(C)C)CCN(S(=O)(=O)c3ccccc3)CC[C@@H]12", "Unit string": "%", "Test value": 1.26}
{"Molecule": "CCC(CC#N)n1ccc(C(F)(F)F)n1 (stereo not drawn)", "Unit string": "%", "Test value": -8.38}
{"Molecule": "COCCc1ncc(CNC2(c3ccc(Cl)cc3Cl)CC2)cn1", "Unit string": "%", "Test value": -15.8}
{"Molecule": "OCCN1CCN(Cc2cn(-c3ccccc3)nn2)CC1", "Unit string": "%", "Test value": 1.42}
{"Molecule": "CC(C)c1cc(C(=O)N2CCN(Cc3ccc(C#N)cc3)CC2)n[nH]1", "Unit string": "%", "Test value": 26.3}
{"Molecule": "COCCNC(=O)NCC(C)c1ccccc1OC (stereo not drawn)", "Unit string": "%", "Test value": 0.284}
{"Molecule": "OC1CCN(C2CCN(Cc3cccc(Cn4cccn4)c3)CC2)CC1", "Unit string": "%", "Test value": -1.47}
{"Molecule": "O=S(=O)(C1CC1)N1CCC2(COCc3cnc(NCC4CC4)nc32)C1 (stereo not drawn)", "Unit string": "%", "Test value": 6.38}
{"Molecule": "NCc1cn(-c2ccccc2C(=O)NCc2ccccc2)cn1", "Unit string": "%", "Test value": 3.32}
{"Molecule": "O=C(NCCCn1ccnn1)C1CCCN(C2CCCC2)C1 (stereo not drawn)", "Unit string": "%", "Test value": -6.03}
{"Molecule": "Cc1ccc2nc(C3CCCN3Cc3csc(C)n3)[nH]c2c1 (stereo not drawn)", "Unit string": "%", "Test value": 1.58}
{"Molecule": "CC(C)C1CN(S(=O)(=O)C2CC2)CCCN1Cc1ccc(F)cc1 (stereo not drawn)", "Unit string": "%", "Test value": 7.01}
{"Molecule": "Cc1cnn(CC2CCCN2Cc2noc(C(C)C)n2)c1 (stereo not drawn)", "Unit string": "%", "Test value": -1.67}
{"Molecule": "Cc1cnc(NCc2csc(C(C)C)n2)nc1-c1cnn(C)c1", "Unit string": "%", "Test value": 2.83}
{"Molecule": "O=C(C[C@@H]1COC[C@H]2CN(C3CCC3)C[C@@H]12)NCc1cccnc1", "Unit string": "%", "Test value": 12.9}
{"Molecule": "CN1CCOC(C)(C(=O)N2CCN(C3CCCC3)CC2)C1 (stereo not drawn)", "Unit string": "%", "Test value": -25.8}
{"Molecule": "COc1nn(C)cc1C(=O)NCC(=O)Nc1cccnc1", "Unit string": "%", "Test value": -8.75}
{"Molecule": "O=S1(=O)C[C@@H]2[C@H](C1)N(Cc1ncc[nH]1)CCN2C/C=C/c1ccccc1", "Unit string": "%", "Test value": 11.2}
{"Molecule": "Cc1cc(C2CCCN(Cc3ncc(C)o3)C2)n[nH]1 (stereo not drawn)", "Unit string": "%", "Test value": 4.63}
{"Molecule": "CSc1ccc(C2CC(=O)Nc3c2c(=O)[nH]n3C(C)C)cc1 (stereo not drawn)", "Unit string": "%", "Test value": 6.71}
{"Molecule": "COc1ccccc1CC1CCN(C(=O)CCN2CCOC2=O)CC1", "Unit string": "%", "Test value": 3.76}
{"Molecule": "Cc1nnc(NCc2cccnc2N(C)C)c(C#N)c1C", "Unit string": "%", "Test value": -4.94}
{"Molecule": "CCOCCN1CCN(CCC(=O)N2CCCCC2)CC1C (stereo not drawn)", "Unit string": "%", "Test value": -5.99}
{"Molecule": "CCc1nc2n(n1)CC(NCCc1cccs1)CC2 (stereo not drawn)", "Unit string": "%", "Test value": -13}
{"Molecule": "OC(CN(Cc1ccccc1)Cc1ccccn1)c1cccs1 (stereo not drawn)", "Unit string": "%", "Test value": 0.174}
{"Molecule": "CSCCC(=O)N1CCC(c2nccn2Cc2cscn2)CC1", "Unit string": "%", "Test value": 1.41}
{"Molecule": "O=C(C1CCCCN1Cc1nc(-c2ccco2)no1)N1CCCC1 (stereo not drawn)", "Unit string": "%", "Test value": -4.64}
{"Molecule": "CCS(=O)(=O)CCCN1CCSCC1c1ccc(Cl)cc1 (stereo not drawn)", "Unit string": "%", "Test value": -5.05}
{"Molecule": "O=C(CC1CCCC1)NCCn1ccc(-c2ccncc2)n1", "Unit string": "%", "Test value": 5.97}
{"Molecule": "Nc1cccc(C2CN(C(=O)CN3CCOCC3)CCO2)n1 (stereo not drawn)", "Unit string": "%", "Test value": -8.83}
{"Molecule": "Cc1ccc(C(=O)N2CCC3(CC2)CC(c2cnn(C)c2)CO3)cn1 (stereo not drawn)", "Unit string": "%", "Test value": -69.5}
{"Molecule": "Cc1ccc(N2CCCC(N3CCC4(CC3)OCCO4)C2=O)cc1 (stereo not drawn)", "Unit string": "%", "Test value": 6.7}
{"Molecule": "CNc1nc(C)c(C(=O)N2CCCCC2CCc2ccc(O)cc2)s1 (stereo not drawn)", "Unit string": "%", "Test value": 0.126}
{"Molecule": "Cc1ccc(C(NC(=O)C2CCC(O)CC2)c2cccnc2)cc1C (stereo not drawn)", "Unit string": "%", "Test value": 24.2}
{"Molecule": "CCN(c1ccc(C(=O)NCc2ccnc(C)n2)cc1)C(C)C", "Unit string": "%", "Test value": -8.78}
{"Molecule": "Cc1nonc1CN(C)Cc1nc(-c2ccccc2Cl)oc1C", "Unit string": "%", "Test value": -3.04}
